test: in vivo; details: mouse, iv, 1 mg/kg
Description: Volume of distribution in mouse at 1 mpk, iv
readout.kind: Vd (L/kg)
Numbers only here, please. The scale is L/kg.

-- ask # Vd lookup, item CCc1sc2ncnc(N[C@H](Cc3ccccc3)C(=O)O)c2c1-c1ccc(OCCN2CCN(C)CC2)c(Cl)c1C (stereo in doubt; 17a)
-- reply 0.9

====

experiment: in vivo; details: mouse, po, 3 mg/kg
Description: Cmax in mouse at 3 mpk, po
readout.kind: Cmax (ng/mL)
Numbers only here, please. The scale is ng/mL.

-- ask # Cmax lookup, item CCc1sc2ncnc(N[C@H](Cc3ccccc3)C(=O)O)c2c1-c1ccc(OCCN2CCN(C)CC2)c(Cl)c1C (stereo in doubt; 17a)
-- reply 64

====

Hi! I'm sharing some pKi results obtained with Apoptosis regulator Bcl-2 (Homo sapiens).
Sequence (P10415 whole entry): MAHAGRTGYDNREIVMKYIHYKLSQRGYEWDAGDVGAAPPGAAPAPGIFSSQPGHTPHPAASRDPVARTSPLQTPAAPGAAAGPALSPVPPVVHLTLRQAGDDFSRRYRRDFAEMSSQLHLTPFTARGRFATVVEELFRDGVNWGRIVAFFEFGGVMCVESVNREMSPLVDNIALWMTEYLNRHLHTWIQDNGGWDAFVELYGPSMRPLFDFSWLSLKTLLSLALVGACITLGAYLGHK
pKi here is simply -log10 of the concentration when that concentration is written in mol/L.

| chemical.structure | study.target | pKi |
| --- | --- | --- |
| CCc1sc2ncnc(N[C@@H](C)C(=O)O)c2c1-c1cccc(C(F)(F)F)c1 | Apoptosis regulator Bcl-2 (Homo sapiens) | 3.36 |
| CCNS(=O)(=O)c1cccc(-c2nc(N[C@H](C)C(=O)O)c3c(-c4cccc(Oc5ccc(F)cc5)c4)c(CC)sc3n2)c1 | Apoptosis regulator Bcl-2 (Homo sapiens) | 5.89 |
| CCc1sc2ncnc(N[C@H](Cc3ccccc3)C(=O)O)c2c1-c1cccc(Oc2ccc(F)cc2)c1 | Apoptosis regulator Bcl-2 (Homo sapiens) | 4.62 |

-- ask # pKi lookup, item "CCc1sc2ncnc(O[C@H](Cc3ccccc3)C(=O)O)c2c1-c1cccc(Cl)c1C"
-- reply 4.44

-- ask Now this one: "CCc1sc2ncnc(N[C@@H](Cc3ccccc3)C(=O)O)c2c1-c1cccc(Oc2ccc(F)cc2)c1"
-- reply 4.62

-- ask Now this one: "CCc1sc2ncnc(N[C@@H](C)C(=O)O)c2c1-c1ccc(SC)cc1"
-- reply 3.44

-- ask Now this one: "CCc1sc2ncnc(N[C@H](C)C(=O)O)c2c1-c1cccc(Oc2ccc(F)cc2)c1"
-- reply 5.21

-- ask Now this one: "CCc1sc2ncnc(N[C@H](C)C(=O)O)c2c1-c1cccc(O)c1"
-- reply 5.30

-- ask Now this one: "CCc1sc2ncnc(N[C@@H](C(=O)O)c3ccccc3)c2c1-c1cccc(O)c1"
-- reply 3.33

-- ask Now this one: "CCc1sc2ncnc(N[C@H](CC3CCCCC3)C(=O)O)c2c1-c1cccc(Oc2ccc(F)cc2)c1"
-- reply 5.09

====

target: Induced myeloid leukemia cell differentiation protein Mcl-1 (Homo sapiens); experiment: biochemical
Sequence (Q07820 whole entry): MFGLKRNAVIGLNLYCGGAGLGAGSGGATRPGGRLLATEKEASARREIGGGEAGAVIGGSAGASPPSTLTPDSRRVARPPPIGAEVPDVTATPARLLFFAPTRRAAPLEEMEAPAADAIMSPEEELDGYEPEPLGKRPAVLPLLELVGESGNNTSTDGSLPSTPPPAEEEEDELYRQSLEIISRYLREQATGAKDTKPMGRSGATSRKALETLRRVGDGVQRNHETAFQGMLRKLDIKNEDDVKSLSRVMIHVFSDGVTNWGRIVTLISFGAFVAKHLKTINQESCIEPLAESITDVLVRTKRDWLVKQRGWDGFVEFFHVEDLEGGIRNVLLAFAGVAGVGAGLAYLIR
Mark Satisfied only for Ki values smaller than 20 µM; exact matches and larger values are Not satisfied.

| compound | label |
| --- | --- |
| CCNS(=O)(=O)c1cccc(-c2nc(N[C@H](C)C(=O)O)c3c(-c4cccc(Oc5ccc(F)cc5)c4)c(CC)sc3n2)c1 | Not satisfied |
| CCc1sc2ncnc(N[C@@H](C)C(=O)O)c2c1-c1cccc(Oc2ccc(F)cc2)c1 | Not satisfied |
| CCc1sc2ncnc(N[C@H](Cc3ccccc3)C(=O)O)c2c1-c1cccc2[nH]ccc12 (stereo in doubt; 8a) | Satisfied |
| CCc1sc2ncnc(N[C@H](Cc3ccccc3)C(=O)O)c2c1-c1ccc(OCCN2CCN(C)CC2)c(Cl)c1C (stereo in doubt; 17a) | Satisfied |
| CCc1sc2ncnc(O[C@H](C)C(=O)O)c2c1-c1ccccc1C (stereo in doubt; 7e) | Satisfied |
| CCc1sc2ncnc(O[C@H](Cc3ccccc3)C(=O)O)c2c1-c1ccccc1C (stereo in doubt; 9d) | Satisfied |
| CCc1sc2ncnc(N[C@H](C)C(=O)O)c2c1-c1ccccc1OCc1ccccc1 | Not satisfied |

Now look at this entry.
-- ask Determine whether this compound shows Ki lower than 20 µM (ties excluded): "CCc1sc2ncnc(N[C@H](C(=O)O)c3ccccc3)c2c1-c1cccc(O)c1"
-- reply Not satisfied

Each recorded value in this set is attributed to ChEMBL document CHEMBL4373699.
